- Test system: NCI-H23 lung
- assay-method-text: NCI tumour cell line growth inhibition, 48 h
observation-type: GI50

INSERT INTO results (compound, target_or_test_system, result) VALUES
  ('CCOC(=O)c1ccc(NC(=O)Nc2nncs2)cc1', 'NCI-H23 lung', '0.649 µM'),
  ('COc1ccc(C2=N[C@@H](Cc3ccccc3)C(=O)Nc3ccsc32)cc1', 'NCI-H23 lung', '11.1 µM'),
  ('CCOC(=O)/C(=C/N1CCN(C(=O)c2ccco2)C1=S)C(=O)c1ccccc1', 'NCI-H23 lung', '7.7 µM'),
  ('O=C(CC(Cl)=C(Cl)Cl)Nc1ccccc1', 'NCI-H23 lung', '> 100 µM'),
  ('C=C1CC[C@@H]2[C@](C)(COC(C)=O)[C@H](OC(C)=O)CC[C@@]2(C)[C@@H]1CC(Nc1ccc(S(=O)(=O)NC(C)=O)cc1)C1=CCOC1=O (stereo not given in full)', 'NCI-H23 lung', '5.52 µM'),
  ('CCC(C)[C@H]1O[C@]2(CC[C@@H]1C)C[C@@H]1C[C@@H](C/C=C(\C)[C@@H](OC3C[C@H](OC)C(O[C@H]4C[C@H](OC)[C@@H](O)[C@H](C)O4)[C@H](C)O3)[C@@H](C)/C=C/C=C3\CO[C@@H]4[C@H](O)C(C)=C[C@@H](C(=O)O1)[C@]34O)O2 (stereo not given in full)', 'NCI-H23 lung', '3.21 µM'),
  ('COCC1CCCN1c1ccc(C=N/C(C#N)=C(\N)C#N)cc1 (stereo not given)', 'NCI-H23 lung', '> 100 µM'),
  ('O=Nc1ccc(O)c(=O)cc1', 'NCI-H23 lung', '3.04 µM');

// below: GI50 requested for another compound
# GI50 (compound: COc1cc(/C=C\c2cc(OC)c(OC)c(OC)c2)cc(N/C=C\C(=O)c2ccc(OC(F)(F)F)cc2)c1OC ) is 4.38 µM

###

- Test system: A549 NSCLC
- assay-method-text: NCI tumour cell line growth inhibition, 48 h
observation-type: TGI

INSERT INTO measurements (molecule, target_or_test_system, observation_type, result) VALUES
  ('CC(N)C(Cc1ccc(Cl)cc1)c1ccc(Cl)cc1 (configuration not stated)', 'A549 NSCLC', 'TGI', '29.4 µM'),
  ('CN(C)CCCc1cccc2[nH]c3c(c12)CN(C)CC3', 'A549 NSCLC', 'TGI', '> 100 µM');

# TGI (molecule: COc1ccc(N=NC(=O)NC(Cc2ccccc2)C(=O)O)cc1 (configuration not stated) ) is > 100 µM

###

- Tested on: SF-268 CNS
- assay-method-text: NCI tumour cell line growth inhibition, 48 h
observation-type: TGI

# TGI (molecule: Cc1ccn2c(=O)cc(CN3CCOCC3)nc2c1 ) is > 100 µM

# TGI (molecule: N#CC(C(=O)c1cccnc1Cl)c1nc2cc(C(F)(F)F)ccc2s1 (stereo not given) ) is > 100 µM

# TGI (molecule: CS(=O)(=O)Nc1cncc(-c2ccc3ncnc(Nc4ccc(F)c(Cl)c4)c3c2)c1 ) is 18.7 µM

# TGI (molecule: CCN(CC)c1ccc(/C=N/NC(=O)CSc2nc3ccccc3c(=O)n2CCc2ccc(S(N)(=O)=O)cc2)c(O)c1 ) is > 100 µM

# TGI (molecule: COc1ccccc1NC(=S)NN=C(C)c1cccc(C(C)=NNC(=S)Nc2ccccc2OC)n1 ) is > 100 µM

Where these numbers come from: PubChem BioAssay (NCI)
